Each entry below carries its recorded TGI.
# Test system: HCC-2998 colon
# EXPERIMENTAL PROTOCOL: NCI tumour cell line growth inhibition, 48 h
MEASURED ATTRIBUTE: TGI

| COMPOUND | MEASUREMENT TARGET | VALUE |
| --- | --- | --- |
| CC(=O)O[C@H]1C(=O)[C@@]2(C)[C@H]([C@H](OC(=O)c3ccccc3)[C@]3(O)C[C@H](OC(=O)[C@H](OC(=O)OC[C@@H]4COC(C)(C)O4)[C@@H](NC(=O)c4ccccc4)c4ccccc4)C(C)=C1C3(C)C)[C@]1(OC(C)=O)CO[C@@H]1C[C@@H]2O | HCC-2998 colon | > 33.3 µM |
| CNS(=O)(=O)NN(C)S(=O)(=O)c1ccc(OC)cc1 | HCC-2998 colon | > 100 µM |
| COc1ccc(C2C(C#N)=C(N)Oc3c2sc2c(C)cccc32)cc1 (stereo not given) | HCC-2998 colon | 7.39 µM |
| O=C(OC1C=C=CS(=O)(=O)CC#C/C=C\1)c1cnc2ccccc2n1 (stereo not given) | HCC-2998 colon | > 100 µM |
| Cc1cc(CN2CCCCC2)c(O)c(CN2CCCCC2)c1 | HCC-2998 colon | > 100 µM |
| O=C1C=CC(=O)C(c2cc(-c3ccc(Cl)cc3)nn2-c2ccccc2)=C1 | HCC-2998 colon | 34.4 µM |
| CC(=O)c1c(C)cn(S(=O)(=O)NC(=O)Nc2nncs2)c1C | HCC-2998 colon | > 100 µM |
| c1ccc(N2CCN(CN3CCN(c4ccccc4)C3)C2)cc1 | HCC-2998 colon | > 100 µM |
| CC(C)(C)N1C(=O)N=[N+](/C(=C(\c2ccccc2)n2nc([O-])n(C(C)(C)C)c2=O)c2ccccc2)C1=O | HCC-2998 colon | > 100 µM |
| COc1cc(Nc2nc3c(N)cc(C(F)(F)F)cc3nc2-c2ccccc2)cc(OC)c1OC | HCC-2998 colon | > 100 µM |
| C=CC(=O)N1CC2(CCC(n3nc(-c4ccc(Oc5ccccc5)cc4)c4c(N)ncnc43)CC2)C1 | HCC-2998 colon | 19.6 µM |
| Cc1nc(Nc2ccc(Cl)cc2Cl)sc1C(=O)Nc1ccccc1 | HCC-2998 colon | > 100 µM |
| COC(=O)CCC(NC(=S)N/N=C(\C)c1ccco1)C(=O)OC (stereo not given) | HCC-2998 colon | > 100 µM |
| O=C1Cc2ccccc2N1/N=C\c1ccc([N+](=O)[O-])cc1 | HCC-2998 colon | > 100 µM |
| N#CC(C#N)=c1ccc(=C2N3CCCC3CN2C23CC4CC(CC(C4)C2)C3)cc1 (stereo not given) | HCC-2998 colon | > 100 µM |
| Clc1ccc(-c2noc(CN3CCCCC3)n2)cc1 | HCC-2998 colon | > 100 µM |
| CC1=CP(=O)(OC(C)C)CC(C)=C1Cl (stereo not given) | HCC-2998 colon | > 100 µM |
| COC(=O)c1cc2cc(OC)c(OC)cc2cc(C(=O)OC)c1=O | HCC-2998 colon | > 100 µM |
| O/N=C(\C(=N/O)Nc1ccc(-c2ccc(NC(=N/O)/C(=N\O)c3ccccc3)cc2)cc1)c1ccccc1 | HCC-2998 colon | 18.7 µM |
| Clc1ccc(Cl)c(NNc2cc(Cl)ccc2Cl)c1 | HCC-2998 colon | > 10 µM |
